# credit: ChEMBL document CHEMBL1201862

# Tested on: SR
# assayDetails: NCI tumour cell line growth inhibition, 48 h
Calls of active or inactive are those of the source. No stated cut-off is given here; in the data, active = GI50 up to about 1.1 µM and inactive = higher.
A correct response names exactly one class from active, inactive

IN: GET /call?item= O=c1ccc(-c2ccc(-n3ccnc3)cc2)nn1CCO returns the recorded outcome of this test.
OUT: inactive

IN: GET /call?item= O=C(CCCn1ccnc1[N+](=O)[O-])NCCn1cncc1[N+](=O)[O-] returns the recorded outcome of this test.
OUT: inactive

IN: GET /call?item= COc1ccccc1-c1cc(=O)c2ccc(OC)c(OC)c2o1 returns the recorded outcome of this test.
OUT: inactive

IN: GET /call?item= CC(=O)CC(O)(C(F)(F)Cl)C(F)(F)Cl returns the recorded outcome of this test.
OUT: inactive

IN: GET /call?item= N#Cc1ccc(-c2nc(C#N)c(N)o2)cc1 returns the recorded outcome of this test.
OUT: inactive

IN: GET /call?item= O=C(O)C1(C(=O)O)CCN(S(=O)(=O)c2ccccc2)CC1 returns the recorded outcome of this test.
OUT: inactive

IN: GET /call?item= O=C(Cl)C1=C(c2ccccc2)C1c1ccccc1 (stereo unspecified) returns the recorded outcome of this test.
OUT: inactive

IN: GET /call?item= OC(c1cc2ccccc2o1)c1cc2ccccc2s1 (stereo unspecified) returns the recorded outcome of this test.
OUT: inactive

IN: GET /call?item= COC1C(OC(=O)/C=C/C=C/C=C/C=C/C(=O)O)CCC2(CO2)C1C1(C)OC1CC=C(C)C (stereo unspecified) returns the recorded outcome of this test.
OUT: inactive

IN: GET /call?item= Oc1ccc2ccccc2c1/N=N/c1cccc2ccccc12 returns the recorded outcome of this test.
OUT: inactive

IN: GET /call?item= O=C(/C=C/c1ccc(O)c(O)c1)OCCc1cccc2ccccc12 returns the recorded outcome of this test.
OUT: active

IN: GET /call?item= CCOc1ccc(/N=N/C2C(=O)N(C(=O)CC(=O)Nc3ccc(Cl)cc3)N=C2C)cc1 (stereo unspecified) returns the recorded outcome of this test.
OUT: inactive

IN: GET /call?item= COc1ccc(/N=N/C(=N/NC(=O)c2ccc(C)cc2)c2ccc(N(CCC#N)CCC#N)cc2OC)cc1 returns the recorded outcome of this test.
OUT: inactive

IN: GET /call?item= COc1c2occc2cc2ccc(=O)oc12 returns the recorded outcome of this test.
OUT: inactive

IN: GET /call?item= CC1(C)N=C(N)N=C(N)N1c1ccc(OCC(=O)Nc2cccc(S(=O)(=O)F)c2)c(Cl)c1 returns the recorded outcome of this test.
OUT: inactive

IN: GET /call?item= O=C(O)c1cccc(NC(C(=O)c2ccccc2)c2ccccc2)c1 (stereo unspecified) returns the recorded outcome of this test.
OUT: inactive

IN: GET /call?item= c1ccc(CCn2cncn2)cc1 returns the recorded outcome of this test.
OUT: inactive

IN: GET /call?item= COC(=O)Cc1c([C@H]2[C@H](CC(=O)OC)c3ccccc3N2S(=O)(=O)c2ccc(C)cc2)[nH]c2ccccc12 returns the recorded outcome of this test.
OUT: inactive

IN: GET /call?item= CCOC(=O)[C@H](C)OC(=O)[C@@](C)(NC(=O)c1ccccc1C(=O)OC)[C@@H]1NC=C(C(=O)OC)CS1 returns the recorded outcome of this test.
OUT: inactive

IN: GET /call?item= CCN(CC)/[N+]([O-])=N/OC returns the recorded outcome of this test.
OUT: inactive

IN: GET /call?item= N#Cc1nc(C#N)c(N)[nH]1 returns the recorded outcome of this test.
OUT: inactive

IN: GET /call?item= CCSC1=C(C#N)C2(CCCCC2)C2=C(O)CC(C)(C)CC2=N1 returns the recorded outcome of this test.
OUT: inactive

IN: GET /call?item= COc1ccc(OC)c(NC(=O)CCC/C(CC(=O)c2ccc(O)c(OC)c2)=N\Nc2ccc([N+](=O)[O-])cc2)c1 returns the recorded outcome of this test.
OUT: inactive

IN: GET /call?item= CC[C@H](CCCC[C@H]1CC[C@@H]2CC(=O)C[C@H]12)OC returns the recorded outcome of this test.
OUT: inactive

IN: GET /call?item= O=c1/c(=C/c2ccccc2O)sc2nc3ccccc3n12 returns the recorded outcome of this test.
OUT: inactive

IN: GET /call?item= Nc1ncnc2c1sc(=S)n2-c1ccccc1 returns the recorded outcome of this test.
OUT: inactive

IN: GET /call?item= Oc1nc2cc(Cl)ccc2nc1/C(=N\Nc1ccccc1)C(O)c1ccc(Cl)c(Cl)c1 (stereo unspecified) returns the recorded outcome of this test.
OUT: inactive

IN: GET /call?item= C/C(=C\COP(=O)(O)OP(=O)(O)O)CC/C=C(\C)CNc1ccc([N+](=O)[O-])cc1 returns the recorded outcome of this test.
OUT: inactive

IN: GET /call?item= O=S1(=O)OCCOS(=O)(=O)C1Cc1ccccc1 returns the recorded outcome of this test.
OUT: inactive

IN: GET /call?item= O=C1C(=O)c2ccccc2C=C1[N+](=O)[O-] returns the recorded outcome of this test.
OUT: inactive

IN: GET /call?item= Cc1ccc2c(O)c3c(cc2c1)C(=O)c1c2c(cc(O)c1C3=O)C1(C)OC(O2)C(O)C(N(C)C)C1O (stereo unspecified) returns the recorded outcome of this test.
OUT: active

IN: GET /call?item= COc1ccc(-c2cc(=O)c3ccccc3[nH]2)c(OC)c1 returns the recorded outcome of this test.
OUT: inactive

IN: GET /call?item= O=C1/C(=C/c2ccccc2)CN(C(=O)CCN2CCOCC2)C/C1=C\c1ccccc1 returns the recorded outcome of this test.
OUT: active

IN: GET /call?item= O=C(Nc1ccc(Br)cc1)C(=O)C(C(=O)c1ccc(Cl)c(Cl)c1)C1OC(=O)c2ccccc21 (stereo unspecified) returns the recorded outcome of this test.
OUT: inactive

IN: GET /call?item= CCOC(=O)CNC1=Nc2ccccc2C(=O)N2CSCC12 (stereo unspecified) returns the recorded outcome of this test.
OUT: inactive

IN: GET /call?item= CN(C)CCn1c(=O)c2ccc(NCCNCCO)c3c(=O)c4cc(O)ccc4n(c1=O)c23 returns the recorded outcome of this test.
OUT: active

====

# System: OVCAR-3
# assayDetails: NCI tumour cell line growth inhibition, 48 h
Active and inactive are the calls of the source. No stated cut-off is given here; in the data, active = GI50 up to about 1.1 µM and inactive = higher.
measure: GI50

IN: What measured GI50 is associated with Cn1c(C(C#N)c2nc(Cl)ncc2Br)nc2ccccc21 (configuration not stated) on OVCAR-3?
OUT: > 100 µM (inactive)

IN: What measured GI50 is associated with O=C(Cl)C1=C(c2ccccc2)C1c1ccccc1 (configuration not stated) on OVCAR-3?
OUT: > 100 µM (inactive)

IN: What measured GI50 is associated with C[C@@H]1CC[C@@]2(NC1)O[C@H]1C[C@H]3[C@@H]4CC[C@H]5C[C@@H](O)CC[C@]5(C)[C@H]4CC[C@]3(C)[C@H]1[C@@H]2C on OVCAR-3?
OUT: 61.7 µM (inactive)

IN: What measured GI50 is associated with CN(CCCNC(=O)c1nn(-c2ccccc2)c2c1Cc1ccccc1-2)CCCNC(=O)c1nn(-c2ccccc2)c2c1Cc1ccccc1-2 on OVCAR-3?
OUT: 1.71 µM (inactive)

IN: What measured GI50 is associated with CC[C@]12C=CCN3CC[C@@]4(c5cc(Br)c(OC)cc5N(C)[C@H]4[C@@](O)(C(=O)NC(Cc4c[nH]c5ccccc45)C(=O)OC)[C@@H]1O)[C@@H]32 (some centres not stated) on OVCAR-3?
OUT: 9.16 µM (inactive)

IN: What measured GI50 is associated with COC(=O)[C@@]12CSC[C@]1(C(=O)OC)N[C@@H](c1ccccc1O)C2 on OVCAR-3?
OUT: > 100 µM (inactive)

IN: What measured GI50 is associated with CCN1c2cc(Br)cc3[nH]c(=O)n(c23)CCC1C (configuration not stated) on OVCAR-3?
OUT: 14.6 µM (inactive)

====

Provide the reported GI50 of each item.
# System: PC-3
# assayDetails: NCI tumour cell line growth inhibition, 48 h
The source made the active and inactive calls. Rule as the data show it: active = GI50 up to about 1.1 µM and inactive = higher. Where a SMILES comes first, the peptide text is derived from it. [ ]: non-standard residue; d: D form. Ac5c = NC1(C(=O)O)CCCC1

IN: What measured GI50 is associated with O=C(c1cc2c(c3ccccc13)NCCN=C2C(F)(F)F)C(F)(F)F on PC-3?
OUT: 14.6 µM (inactive)

IN: What measured GI50 is associated with CC1=C(C(=O)OCCc2ccc([N+](=O)[O-])cc2)C(c2cccc([N+](=O)[O-])c2)C(C(=O)OC(C)C)=C(C)N1 (centres undefined) on PC-3?
OUT: 2.26 µM (inactive)

IN: What measured GI50 is associated with CC(=O)C1=C(C)N2C(=NC3=C(CCc4ccccc43)C2c2ccc(Cl)cc2)S1 (centres undefined) on PC-3?
OUT: 10.2 µM (inactive)

IN: What measured GI50 is associated with O/N=N\c1nc(-c2ccccn2)nc2ccccc12 on PC-3?
OUT: 11.7 µM (inactive)

IN: What measured GI50 is associated with CCn1cnc2c(NC(C)=O)ncnc21 on PC-3?
OUT: > 100 µM (inactive)

IN: What measured GI50 is associated with N=C(N)N/N=C/c1c(-c2ccc([N+](=O)[O-])cc2)nc2sccn12 on PC-3?
OUT: 1.59 µM (inactive)

IN: What measured GI50 is associated with CC(C)NC(=O)OCc1c(COC(=O)NC(C)C)c(-c2ccc[n+](COC(=O)C(C)C)c2)n2c1CCC2 on PC-3?
OUT: 59.3 µM (inactive)

IN: What measured GI50 is associated with CC(C)(C)c1cc(-c2cc(C(C)(C)C)n(-c3ccccc3)n2)nn1-c1ccccc1 on PC-3?
OUT: 65.6 µM (inactive)

IN: What measured GI50 is associated with OC(c1cc2ccccc2o1)c1cc2ccccc2s1 (centres undefined) on PC-3?
OUT: 8.57 µM (inactive)

IN: What measured GI50 is associated with COC(=O)C1(NC(=O)C(C)NC(=O)C(CCCCN)NC(=O)C(CC(C)C)NC(C)=O)CCCC1 (centres undefined) (Ac-LKA[Ac5c]-OMe; configuration not given here) on PC-3?
OUT: > 100 µM (inactive)

IN: What measured GI50 is associated with COCn1cnc2c(=O)n(-c3ccc(C)cc3)c(=S)n(-c3ccc(C)cc3)c21 on PC-3?
OUT: > 100 µM (inactive)

IN: What measured GI50 is associated with CC1CCCOc2ccc(cc2)/C=N\c2ccc(cc2)CCc2ccc(cc2)/N=C\c2ccc(cc2)OCCC1 on PC-3?
OUT: > 100 µM (inactive)

IN: What measured GI50 is associated with COc1ccccc1NC(=S)Nc1cc(C)cc(C)n1 on PC-3?
OUT: > 89.9 µM (inactive)

IN: What measured GI50 is associated with COc1ccc(/C=C(\C(=C/c2ccc(OC)cc2)[N+](=O)[O-])[N+](=O)[O-])cc1 on PC-3?
OUT: 5.85 µM (inactive)
